- TEST SYSTEM: CyclinA2/CDK2 (Homo sapiens, UniProt P20248)
- Construct: purchased CRELUX Protein Services
- ASSAY COMMENT: Fluorescence Polarization (FP) competitive binding assay, Cyclin A2/Cdk2;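 also: plates equilibrated two hours at room temperature before polarization reading, IC50 fitted from eight-concentration compound titration curves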
- COND: 8 nM Cyclin A2/Cdk2, 2 nM FAM probe; average of 2-3 independent experiments; read-out: Cyclin A FP IC50
*1 amine or outer side, *2 acyl side, *3 side chain or, on linkers, in order; H or OH if unused. Where a SMILES comes first, the peptide text is derived from it. Bridges are numbered along the chain shown (N, C = ends). [ ]: non-standard residue; d: D form. The star is where a group is joined. X58 = CC(C)C(=O)N1CC=C(c2ccc(Cl)cc2C[C@@H](C(=O)[*:2])N(C)[*:1])CC1; X35 = CN([C@@H](Cc1cc(Cl)ccc1-c1cnc2ccnn2c1)C(=O)[*:2])[*:1]; NMehhhLys(Me) = CN([C@@H](CCCCCCCN(C)[*:3])C(=O)[*:2])[*:1]; X117 = Cc1cc(-c2ccc(F)cc2C[C@@H](C(=O)[*:2])N(C)[*:1])cnn1; X112 = CN([C@@H](Cc1cc(F)ccc1-c1cnn(C)c1)C(=O)[*:2])[*:1]; X64 = CN([C@@H](Cc1cc(Cl)ccc1OC1(C)CC1)C(=O)[*:2])[*:1]; cBuCO(3,3-F2-1-CF3) = O=C(C1(C(F)(F)F)CC(F)(F)C1)*; Pro(trans-4-F) = O=C(O)[C@@H]1C[C@@H](F)CN1; Gly(cPr) = N[C@H](C(=O)O)C1CC1
MEASUREMENT KIND: pIC50
// pIC50 is dimensionless: -log10 of concentration (M)

1. CC(C)C[C@@H]1NC(=O)[C@@H](N(C)C(=O)[C@@H](NC(=O)[C@@H]2C[C@@H](F)CN2C(=O)C2(C(F)(F)F)CC(F)(F)C2)C2CC2)CCCCCCCN(C)C(=O)[C@H](Cc2cc(Cl)ccc2-c2cnc3ccnn3c2)N(C)C1=O [Example 172] ({cBuCO(3,3-F2-1-CF3)}-[Pro(trans-4-F)][Gly(cPr)][NMehhhLys(Me)]L[X35]; lactam 3-C): 7.22

**Q:** I'm curious: which pIC50 was measured for CC(C)C[C@@H]1NC(=O)[C@@H](N(C)C(=O)[C@@H](NC(=O)[C@@H]2C[C@@H](F)CN2C(=O)C2(C(F)(F)F)CC(F)(F)C2)C2CC2)CCCCCCCN(C)C(=O)[C@H](Cc2cc(Cl)ccc2C2=CCN(C(=O)C(C)C)CC2)N(C)C1=O [Example 143] ({cBuCO(3,3-F2-1-CF3)}-[Pro(trans-4-F)][Gly(cPr)][NMehhhLys(Me)]L[X58]; lactam 3-C) tested on CyclinA2/CDK2 (Homo sapiens, UniProt P20248)?
**A:** 7.70

**Q:** Form entry - test system: CyclinA2/CDK2 (Homo sapiens, UniProt P20248); read-out: pIC50; compound: CC(=O)N1CC=C(c2ccc(F)cc2C[C@H]2C(=O)N(C)CCCCC=CC[C@H](N(C)C(=O)[C@@H](NC(=O)[C@@H]3C[C@@H](F)CN3C(=O)C3(C(F)(F)F)CCC3)C3CC3)C(=O)N[C@@H](CC(C)C)C(=O)N2C)CC1
**A:** 7.40

**Q:** Fill in the recorded pIC50 for this compound, with CyclinA2/CDK2 (Homo sapiens, UniProt P20248) as test system: CC(C)C[C@@H]1NC(=O)[C@@H](N(C)C(=O)[C@@H](NC(=O)[C@@H]2C[C@@H](F)CN2C(=O)C2(C(F)(F)F)CC(F)(F)C2)C2CC2)CCCCCCCN(C)C(=O)[C@H](Cc2cc(Cl)ccc2OC2(C)CC2)N(C)C1=O [Example 259] ({cBuCO(3,3-F2-1-CF3)}-[Pro(trans-4-F)][Gly(cPr)][NMehhhLys(Me)]L[X64]; lactam 3-C)
**A:** 7.15

**Q:** # get_value(readout= pIC50, system= CyclinA2/CDK2 (Homo sapiens, UniProt P20248)) for CC(C)C[C@@H]1NC(=O)[C@@H](N(C)C(=O)[C@@H](NC(=O)[C@@H]2C[C@@H](F)CN2C(=O)C2(C(F)(F)F)CC(F)(F)C2)C2CC2)CCCCCCCN(C)C(=O)[C@H](Cc2cc(F)ccc2-c2cnn(C)c2)N(C)C1=O [Example 65] ({cBuCO(3,3-F2-1-CF3)}-[Pro(trans-4-F)][Gly(cPr)][NMehhhLys(Me)]L[X112]; lactam 3-C)
**A:** 7.70

**Q:** Request: pIC50, test system CyclinA2/CDK2 (Homo sapiens, UniProt P20248), entry Cc1cc(-c2ccc(F)cc2C[C@H]2C(=O)N(C)CCCCCCC[C@H](N(C)C(=O)[C@@H](NC(=O)[C@@H]3C[C@@H](F)CN3C(=O)C3(C(F)(F)F)CC(F)(F)C3)C3CC3)C(=O)N[C@@H](CC(C)C)C(=O)N2C)cnn1 [Example 293] ({cBuCO(3,3-F2-1-CF3)}-[Pro(trans-4-F)][Gly(cPr)][NMehhhLys(Me)]L[X117]; lactam 3-C)
**A:** 7.00
